These entries and their values trace back to ChEMBL document CHEMBL1201862.

System: HOP-92
Assay Summary: NCI tumour cell line growth inhibition, 48 h
Activity calls are given as the source filed them. Rule as the data show it: active = GI50 up to about 1.1 µM and inactive = higher.
Outcome codes: active, inactive

{"Compound": "CN(C)CCCSc1c2ccccc2nc2cc(NCC(=O)Nc3ccccc3-c3ccccc3NC(=O)CNc3ccc4c(SCCCN(C)C)c5ccccc5nc4c3)ccc12", "Classification": "inactive"}
{"Compound": "O=C1CC(=O)NC(NN2C(=O)/C(=C/c3ccc(Cl)cc3)N=C2c2ccccc2)=N1", "Classification": "inactive"}
{"Compound": "COc1cc2c(NCCN(C)C)nc3c4cc5c(cc4ccc3c2cc1OC)OCO5", "Classification": "inactive"}
{"Compound": "O=C1c2ccccc2/C(=N\\c2ccc3ccccc3c2)C1(C1=C(c2ccccc2)/C(=N/c2ccc3ccccc3c2)c2ccccc21)c1ccccc1 (stereo not given)", "Classification": "inactive"}
{"Compound": "CN(C)S(=O)(=O)n1cnc(CO)c1", "Classification": "inactive"}
{"Compound": "Cc1c2ccccc2c(C)n2c1nc1cc3ccccc3cc12", "Classification": "active"}
{"Compound": "C/C(=N\\NS(=O)(=O)c1ccc(C)cc1)C(CN1CCOCC1)C(c1ccccc1)c1c(O)c2ccccc2oc1=O (stereo not given)", "Classification": "inactive"}
{"Compound": "COCOCCC#CCO", "Classification": "inactive"}
{"Compound": "COC(=O)c1c(OC(C)=O)ccc2c1c1c(OC(C)=O)c3ccccc3c(OC(C)=O)c1n2Cc1cc(OC)cc(OC)c1", "Classification": "inactive"}
{"Compound": "COc1cc2c(cc1OC)CC(=O)Nc1cc(OC)c(OC)cc1CC2", "Classification": "inactive"}
